The following compounds are shown together with reported growth values.
System: HOP-92 NSCLC
Assay: NCI-60 one-dose screen, 48 h (100 = growth as untreated, 0 = no growth, -100 = all killed)
Details: 10 µM unless noted
About 83,000 compounds went through this panel and 20% of them were active in at least one assay; those are over-represented in the sample as a whole.
Record the value in %, omitting the unit from your answer.

| smiles repr | units label | growth |
| --- | --- | --- |
| CC(C)c1[nH]ncc1-c1nc2ccc3[nH]ncc3c2c2c1CCCC2 | % | 58.5 |
| CCSc1ccc([C@@H]2[C@@H](O)C(=O)N2c2cc(OC)c(OC)c(OC)c2)cc1 | % | 101 |

Attention now turns to another entry.
[in] Look up and state reported growth for CS(=O)(=O)Nc1cc(-c2cc3ncc(C#N)c(Nc4ccc(Oc5ccccc5)c(Cl)c4)c3s2)cnc1Cl
[out] 45.6

====

The following compounds are shown together with reported growth values.
System: HT29 colon
Test: NCI-60 one-dose screen, 48 h (100 = growth as untreated, 0 = no growth, -100 = all killed)
Conditions: 10 µM unless noted
About 83,000 compounds went through this panel and 20% of them were active in at least one assay; those are over-represented in the sample as a whole. Activity calls are given as the source filed them. The calls were made as follows: active = growth percent below 10; inactive = the rest.

| smiles repr | growth |
| --- | --- |
| O=C(O)c1cn(-c2ccccc2)nc1-c1ccc(O)cc1 | 94.7% (inactive) |
| COc1ccc(-n2nc(C(=O)NCC(=O)Nc3nc4cc(OC)ccc4s3)c3ccccc3c2=O)cc1 | -24.4% (active) |

Attention now turns to another entry.
[in] Tell me growth of Nc1ccc(N(O)/C=C2\C=CC=CC2=O)cc1N when tested on HT29 colon.
[out] 172% (inactive)

====

Test system: HCC-2998 colon
Test: NCI-60 one-dose screen, 48 h (100 = growth as untreated, 0 = no growth, -100 = all killed)
Conditions: 10 µM unless noted
This is part of a sample that, as a whole, favours compounds with a hit. Of some 83,000 tested, about 20% had one in any assay. Active and inactive are the calls of the source. The calls were made as follows: active = growth percent below 10; inactive = the rest.
endpoint name: growth

Known results for compounds:
| compound | target under test | growth |
| --- | --- | --- |
| COS(=O)(=O)CCN(CCOS(C)(=O)=O)S(C)(=O)=O | HCC-2998 colon | 98% (inactive) |
| COc1ccc(/C(=C\c2ccc3c(c2)OCO3)C(=O)Nc2nc3ccccc3s2)cc1 | HCC-2998 colon | 109% (inactive) |
| COc1ccc(/C=C2\CCCC3=C2N=C2SC(C)=NN2C3c2ccc(OC)c(OC)c2)cc1OC (centres undefined) | HCC-2998 colon | 30.5% (inactive) |

Attention now turns to another entry.
[in] Look up and state reported growth for C#CC[C@@H]1C[C@]2(C)[C@H]3CC[C@@H]4[C@H]5C(C(=C)C)CC[C@]5(C(=O)NCCCCN)CC[C@@]4(C)[C@]3(C)CC[C@H]2C(C)(C)[C@H]1OC(C)=O (some centres undefined)
[out] -11.1% (active)

====

System: OVCAR-8 ovarian
Assay: NCI-60 one-dose screen, 48 h (100 = growth as untreated, 0 = no growth, -100 = all killed)
Settings: 10 µM unless noted
This is part of a sample that, as a whole, favours compounds with a hit. Of some 83,000 tested, about 20% had one in any assay.
The following compounds are shown together with reported growth values.
Record the value in %, omitting the unit from your answer.

Known results for compounds:
| compound | target under test | units label | growth |
| --- | --- | --- | --- |
| COC(=O)/C=C/c1cc(OC(C)=O)c2c(c1)[C@@H](C(=O)OC)[C@H](c1ccc(OC(C)=O)c(OC(C)=O)c1)O2 | OVCAR-8 ovarian | % | 11 |
| O=C(O)Cn1ccc2ccccc21 | OVCAR-8 ovarian | % | 92.6 |

[in] Look up and state reported growth for O=C(NCCNC(=O)c1cc(S(=O)(=O)NCCc2ccccc2)c(O)c(O)c1O)c1cc(S(=O)(=O)NCCc2ccccc2)c(O)c(O)c1O
[out] 40.2

[in] Look up and state reported growth for COc1cc(/C=C/C(=O)c2ccc(NC(=O)CSc3nnc(-c4ccc(Cl)cc4)n3-c3ccccc3)cc2)cc(OC)c1OC
[out] 62.3

[in] Look up and state reported growth for Clc1ccc(Nc2ncnc3c2sc2ncccc23)cc1
[out] 12.2

[in] Look up and state reported growth for COc1ccc(Nc2ncccc2C(=O)NCc2cn(Cc3cc(OC)cc(OC)c3)nn2)cc1
[out] 97.6

[in] Look up and state reported growth for CNC(=O)c1ccccc1Sc1ccc2c(/C=C/c3ccccn3)n[nH]c2c1
[out] 28.4

====

System: SN12C renal
Test: NCI-60 one-dose screen, 48 h (100 = growth as untreated, 0 = no growth, -100 = all killed)
Conditions: 10 µM unless noted
Compounds without any hit were thinned out: in the full panel of roughly 83,000, 20% have a hit.
endpoint name: growth (%)
Record the value in %, omitting the unit from your answer.

Known results for compounds:
| compound | value observed |
| --- | --- |
| OC(c1cc2c(Cl)cc(Cl)cc2c2cc(C(F)(F)F)ccc12)C1CCCCN1 (configuration not stated) | -79.1 |
| Cc1nc([C@H]2CC[C@H]3[C@@H]4CCC5=CC(=O)CC[C@]5(C)[C@H]4CC[C@]23C)cs1 | 84.1 |
| O=C(Nc1cnc(C(F)(F)F)cn1)c1cc(Cl)ccc1O | 5.36 |
| O=c1c2sc3ncc(Cl)cc3c2nnn1-c1cccc(Cl)c1 | 74.3 |
| O=C(OCc1ccc2c(Br)cc(Br)c(O)c2n1)c1cc2ccccc2[nH]1 | -79.2 |
| Oc1c(C(c2ccc(F)cc2)N2CCCCC2)ccc2cncnc12 (configuration not stated) | 10 |
| C=CCN(CCOC(=O)c1ccc([N+](=O)[O-])cc1)CCOC(=O)c1ccc([N+](=O)[O-])cc1 | 143 |
| CCOC(=O)C(=CNc1ccccc1Cl)C(=O)OCC | 101 |

Attention now turns to another entry.
[in] Look up and state reported growth for C=CCn1c(C)nc2cc(Nc3nc(N4CCOCC4)nc4nc[nH]c34)ccc21
[out] 84.3

====

Test system: K-562 leukemia
Experiment: NCI-60 one-dose screen, 48 h
Details: 10 µM unless noted
Procedure: Cells are grown in 96 well plates and exposed to the test compound for 48 hours. Compounds are tested at a single concentration, which is 10^-5 M for most compounds. The reported endpoint is percent growth (GI% or GIPRCNT), where numbers from 0 - 100% represent growth inhibition, and numbers from -100% - 0 represent cell death. For example, a value of 40 represents 60% growth inhibition. A value of 0 means no net growth occurred over the course of the experiment. […]
About 83,000 compounds went through this panel and 20% of them were active in at least one assay; those are over-represented in the sample as a whole. Calls of active or inactive are those of the source. How the source made its calls: active means growth percent below 10; inactive means the rest.
Give one outcome, nothing more. List: active, inactive

[in] Status in this test for COc1ccc(NC(=O)C2c3ccccc3C(=O)N(CC(C)C)C2c2cccs2)cc1 (stereo not given) ?
[out] inactive

[in] Status in this test for Cc1cc(C)c2c(n1)sc1c(Nc3ccc(Cl)cc3Cl)ncnc12 ?
[out] inactive

[in] Status in this test for O=C(CCCCCCc1nc2ccc(Br)cc2[nH]1)NO ?
[out] active

[in] Status in this test for CC1C2CCC(C2)C1COCCOCCO (stereo not given) ?
[out] inactive

[in] Status in this test for CCCCc1n(Cc2ccc3ccccc3n2)cc[n+]1Cc1ccc2ccccc2n1 ?
[out] active

====

Test system: HOP-62 NSCLC
Experiment: NCI-60 one-dose screen, 48 h (100 = growth as untreated, 0 = no growth, -100 = all killed)
Settings: 10 µM unless noted
Compounds without any hit were thinned out: in the full panel of roughly 83,000, 20% have a hit.
The following molecules are shown together with reported growth values.
Record the value in %, omitting the unit from your answer.

Known results for molecules:
| molecule | endpoint name | value observed |
| --- | --- | --- |
| O=C(CSc1ccc(Cl)cc1)Nc1ccc(-c2nc3ccccc3s2)c(Cl)c1 | growth | 75.3 |
| N#Cc1nc(-c2cccc(Br)c2)cc(-c2ccc(Nc3nc(N4CCCCC4)nc(N4CCCCC4)n3)cc2)c1N | growth | 18.5 |
| O=c1[nH]cnc2nc[nH]c12 | growth | 106 |

[in] Look up and state reported growth for CCN(CC)CCNc1c(C)cc(CO)c(Cl)c1C
[out] 113

[in] Look up and state reported growth for N#Cc1ccc(NC(=O)Nc2nc3ccc(OC(F)(F)F)cc3s2)cc1
[out] 3.68

[in] Look up and state reported growth for Cc1cc2nc3c(=O)[nH]c(=O)nc-3n(CC=O)c2cc1C
[out] 106

====

System: HCT-116 colon
Test: NCI-60 one-dose screen, 48 h (100 = growth as untreated, 0 = no growth, -100 = all killed)
Settings: 10 µM unless noted
About 83,000 compounds went through this panel and 20% of them were active in at least one assay; those are over-represented in the sample as a whole.
Entries whose growth is below 30% take label 1; entries at or above 30% take label 0.

Examples with answers:
| molecule | classification |
| --- | --- |
| COc1ccc(C2=NN(C=O)C(c3ccc(OS(=O)(=O)c4ccc(C)cc4)c(OC)c3)C2)cc1 (configuration not stated) | label 0 |
| CCN(CC)CCCC(C)Nc1cnc(C(=O)Nc2cc(C)cc3cccnc23)cn1 (configuration not stated) | label 1 |
| N#Cc1c(N)n(C2OC(CO)C(O)C2O)c2ncnc(N)c12 (configuration not stated) | label 1 |

[in] # strict comparison: is reported growth < 30%? input = Nc1c(C(=O)Nc2cccc(Cl)c2)sc2ncc(Br)cc12
[out] label 1

[in] # strict comparison: is reported growth < 30%? input = Oc1[nH]c2ccc(Cl)cc2c1/C=c1/ccc2c(c1)N=C(c1ccc(F)cc1)N=2
[out] label 1

[in] # strict comparison: is reported growth < 30%? input = CCCCCCCCCCCCCCCCCC1=NC(C)(C)CN1C(C)(C)CO
[out] label 1

[in] # strict comparison: is reported growth < 30%? input = COCCCNCC(=O)Nc1c(C)cccc1C
[out] label 0

[in] # strict comparison: is reported growth < 30%? input = CC(C)(C)CC(C)(C)NCc1cc(C(C)(C)C)cc(CNC(C)(C)CC(C)(C)C)c1O
[out] label 1

[in] # strict comparison: is reported growth < 30%? input = COc1cc(-c2nc(-c3nc4cc(C(=O)c5ccccc5)ccc4[nH]3)cc3c2[nH]c2ccccc23)cc(OC)c1OC
[out] label 0

[in] # strict comparison: is reported growth < 30%? input = COc1ccc2c(c1)CCCC21C(=O)Nc2ccccc21 (configuration not stated)
[out] label 0

[in] # strict comparison: is reported growth < 30%? input = C/C(=C\C(=N\N=C(N)N)c1ccc(Cl)cc1)c1ccc(Cl)cc1
[out] label 1
